- assay remarks: NCI Yeast Anticancer Drug Screen. Data for the cln2 rad14 strain (AID 165);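 also: 0% = growth equal to vehicle treated cultures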
- condition: S. cerevisiae cln2 rad14 strain, at 50.0 µM (retest, dose inferred, filed as 5.0), active compounds read high
This is part of a sample that, as a whole, favours compounds with a hit. Of some 79,000 tested, about 15% had one in any assay. The source made the active and inactive calls. Rule as the data show it: active = growth inhibition above about 70%; inactive = the rest.
# growth inhibition values compiled below

Some solved entries appear below for comparison.
>  <compound>
c1ccc(Oc2ccc(Nc3c4ccccc4nc4ccccc34)cc2)cc1

>  <reported metric>
growth inhibition

>  <readout value>
62% (inactive)

$$$$
>  <compound>
Cc1noc(NS(=O)(=O)c2ccc(NC(=S)/N=C/c3c(O)[nH]c(=O)[nH]c3=O)cc2)c1C

>  <reported metric>
growth inhibition

>  <readout value>
-19% (inactive)

$$$$
>  <compound>
Cc1ccc(Nc2nc3c(s2)C(=O)c2ccccc2C3=O)c(C)c1

>  <reported metric>
growth inhibition

>  <readout value>
98% (active)

$$$$

Form field: reported growth inhibition of c1cc(SSc2ccncc2)ccn1
97% (active)

Form field: reported growth inhibition of O=c1[nH]c2ccccc2c2oc3ccccc3c12
32% (inactive)

Form field: reported growth inhibition of CCCCCCCCN/N=C(/C)CCCCCO
-2% (inactive)

Form field: reported growth inhibition of O=[N+]([O-])c1c(C=Nc2ccccc2)oc(-c2c(O)ccc3ccccc23)c1-c1c(O)ccc2ccccc12
-26% (inactive)

Form field: reported growth inhibition of CC(Nc1cc(Cl)cc(Cl)c1)c1ccncc1 (stereo unspecified)
98% (active)

Form field: reported growth inhibition of c1ccc(N=c2sc3ccccc3sc2=Nc2ccccc2)cc1
69% (inactive)

Form field: reported growth inhibition of O=C1C(=C2C(=O)c3ccccc3[N+]2=O)N([O-])c2ccccc21
15% (inactive)

Form field: reported growth inhibition of COc1cc(CCN=Cc2cc(Cl)cc(Cl)c2O)c([N+](=O)[O-])cc1OC
57% (inactive)
